The measured values listed here are drawn from patent US20260242735A1.

# measured target: human CD33 D205A (human, UniProt P20138 18-364)
# Sequence (P20138 18-364 D205A limits assumed): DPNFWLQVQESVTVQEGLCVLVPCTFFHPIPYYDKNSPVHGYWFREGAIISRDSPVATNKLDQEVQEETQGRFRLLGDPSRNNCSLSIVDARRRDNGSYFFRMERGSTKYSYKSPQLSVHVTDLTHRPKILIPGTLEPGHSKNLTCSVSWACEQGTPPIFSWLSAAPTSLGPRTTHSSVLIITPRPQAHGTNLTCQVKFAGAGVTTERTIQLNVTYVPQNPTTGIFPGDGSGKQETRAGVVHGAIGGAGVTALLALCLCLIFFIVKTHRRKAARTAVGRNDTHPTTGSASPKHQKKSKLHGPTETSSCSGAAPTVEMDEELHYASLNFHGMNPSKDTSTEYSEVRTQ
# assay explanation: alanine scan, flow cytometry, HEK293-T;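 further: antibody binding to each alanine-substituted CD33 mutant expressed transiently in HEK293-T, read as fluorescence minus background, mean of duplicates, relative to wild-type CD33 set as 100%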
metric name: Mean % WT Binding (%)
Numbers only, in %.

Example binders with recorded Mean % WT Binding:
>>> value_reported("Refmab #1 (antibody, V domains shown, In the alanine scan antibodies were used as IgG or Fab; also called hP67.6) VH: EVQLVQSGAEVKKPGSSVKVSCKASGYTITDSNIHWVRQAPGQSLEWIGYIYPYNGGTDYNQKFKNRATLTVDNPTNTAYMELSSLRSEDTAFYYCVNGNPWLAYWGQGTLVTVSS VL: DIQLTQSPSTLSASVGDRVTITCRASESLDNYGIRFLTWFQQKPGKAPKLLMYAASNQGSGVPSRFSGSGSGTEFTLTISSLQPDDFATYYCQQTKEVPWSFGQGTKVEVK")
1.6
>>> value_reported("Refmab #2 (antibody, V domains shown, In the alanine scan antibodies were used as IgG or Fab) VH: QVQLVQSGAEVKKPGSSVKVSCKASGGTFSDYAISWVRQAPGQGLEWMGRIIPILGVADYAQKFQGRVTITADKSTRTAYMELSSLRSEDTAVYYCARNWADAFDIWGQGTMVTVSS VL: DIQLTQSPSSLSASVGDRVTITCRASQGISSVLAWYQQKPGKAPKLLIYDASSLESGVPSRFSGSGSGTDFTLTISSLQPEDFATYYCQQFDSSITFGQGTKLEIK")
2.8
>>> value_reported("Refmab #4 (antibody, V domains shown, In the alanine scan antibodies were used as IgG or Fab) VH: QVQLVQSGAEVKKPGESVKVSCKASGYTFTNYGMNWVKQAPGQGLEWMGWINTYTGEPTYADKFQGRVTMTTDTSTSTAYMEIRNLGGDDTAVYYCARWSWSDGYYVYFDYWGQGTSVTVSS VL: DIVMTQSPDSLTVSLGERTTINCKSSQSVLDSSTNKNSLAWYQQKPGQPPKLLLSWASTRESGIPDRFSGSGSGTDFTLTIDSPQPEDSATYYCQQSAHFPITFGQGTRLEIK")
0.1

Please look at the following binder next.
**Q:** Give the measured Mean % WT Binding of Refmab #3 (antibody, V domains shown, In the alanine scan antibodies were used as IgG or Fab) VH: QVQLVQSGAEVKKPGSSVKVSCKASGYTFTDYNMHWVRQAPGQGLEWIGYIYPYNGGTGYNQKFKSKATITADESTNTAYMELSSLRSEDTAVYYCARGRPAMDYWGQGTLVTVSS VL: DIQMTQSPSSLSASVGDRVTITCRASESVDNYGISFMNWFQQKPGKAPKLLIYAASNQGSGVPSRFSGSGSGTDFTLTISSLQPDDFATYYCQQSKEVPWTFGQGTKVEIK .
**A:** 8.1
